molecular target: T1, HIF-2α (construct not given) (UniProt Q99814 1-360, limits assumed); assay: HIF-2 ELISA, inhibition of HIF-2α/HIF-1β dimerisation
T1 construct: also called HIF-2 ELISA
T1 sequence (Q99814 1-360 limits assumed): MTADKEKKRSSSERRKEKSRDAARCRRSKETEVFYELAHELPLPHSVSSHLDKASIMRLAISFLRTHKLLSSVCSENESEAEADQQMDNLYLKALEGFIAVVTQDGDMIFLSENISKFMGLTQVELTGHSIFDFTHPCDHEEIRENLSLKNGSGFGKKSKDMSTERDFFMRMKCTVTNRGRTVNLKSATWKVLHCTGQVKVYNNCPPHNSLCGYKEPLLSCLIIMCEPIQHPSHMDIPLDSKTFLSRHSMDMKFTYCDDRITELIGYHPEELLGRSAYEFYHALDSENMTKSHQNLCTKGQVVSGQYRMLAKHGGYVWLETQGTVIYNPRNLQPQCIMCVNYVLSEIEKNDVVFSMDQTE
Non-standard residues stand in square brackets, D forms with d. Phe(4-NO2) = N[C@@H](Cc1ccc([N+](=O)[O-])cc1)C(=O)O; Phe(4-CN) = N#Cc1ccc(C[C@H](N)C(=O)O)cc1; Phe(4-Cl) = N[C@@H](Cc1ccc(Cl)cc1)C(=O)O; Phe(4-F) = N[C@@H](Cc1ccc(F)cc1)C(=O)O; Phe(4-Me) = Cc1ccc(C[C@H](N)C(=O)O)cc1; Cha = N[C@@H](CC1CCCCC1)C(=O)O
endpoint: pIC50
Please keep in mind that pIC50 is minus log10 of the molar concentration; only the number is needed.

Reference set (6 entries):
binder: cyclo(CRLLI[Cha]) (also called CRLLIX where X = Cha) [CRLLI(Cha)]
pIC50: 4.70
//
binder: cyclo(CRLLI[Phe(4-Cl)]) (also called CRLLIX where X = 4-Cl-F) [CRLLI(4-Cl-F)]
pIC50: 5.31
//
binder: cyclo(CRLLI[Phe(4-F)]) (also called CRLLIX where X = 4-F-F) [CRLLI(4-F-F)]
pIC50: 4.94
//
binder: CRLLIF (cyclic peptide (cyclo-, first amino acid joined to the last), One of the 4 cyclic peptide hits of the SICLOPPS screen; made by solid phase synthesis; also called CRLLIX where X = F) [cyclo-CRLLIF (SEQ ID NO 3)]
pIC50: 4.01
//
binder: cyclo(CRLLI[Phe(4-NO2)]) (also called CRLLIX where X = 4-NO2-F) [CRLLI(4-NO2-F)]
pIC50: 4.92
//
binder: cyclo(CRLLI[Phe(4-CN)]) (also called CRLLIX where X = 4-CN-F) [CRLLI(4-CN-F)]
pIC50: 5.20

Here is the next item to consider.
INPUT: What value of measured pIC50 is listed for cyclo(CRLLI[Phe(4-Me)]) (also called CRLLIX where X = 4-Me-F) [CRLLI(4-Me-F)] ?
OUTPUT: 5.22
